- target desc: histamine H3 receptors (Homo sapiens, UniProt Q9Y5N1)
- Construct: expressed in transfected cells; host or cells: CHO K1 cells carrying pSwitch, transfected with pGeneH3, induced with mifepristone; clone 3H3; membrane preparation
- Sequence (Q9Y5N1 whole entry): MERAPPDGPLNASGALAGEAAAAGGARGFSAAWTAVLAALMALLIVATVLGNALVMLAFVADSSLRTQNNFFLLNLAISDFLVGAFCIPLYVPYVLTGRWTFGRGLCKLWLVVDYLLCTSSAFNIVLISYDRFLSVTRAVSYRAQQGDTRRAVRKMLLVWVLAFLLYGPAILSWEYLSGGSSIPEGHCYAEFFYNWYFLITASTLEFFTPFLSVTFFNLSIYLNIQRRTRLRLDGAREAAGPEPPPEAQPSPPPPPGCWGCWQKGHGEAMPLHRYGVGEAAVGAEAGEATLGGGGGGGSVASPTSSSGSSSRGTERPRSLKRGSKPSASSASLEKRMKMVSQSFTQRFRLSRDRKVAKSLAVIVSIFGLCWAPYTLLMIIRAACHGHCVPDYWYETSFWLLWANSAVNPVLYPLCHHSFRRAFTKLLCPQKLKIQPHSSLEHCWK
- test name: Histamine H3 functional antagonist assay ([35S]-GTPγS SPA on membranes from H3 cells)
- Type: biochemical
- condition set: hydrochloride salts tested; H3 functional antagonist assay using membrane prepared from cultured H3 cells; averages of a number of experiments; read-out: functional pKi (fpKi) (converted)

molecule	target desc	Ki
c1cc(N2CCCC2)ncc1-c1nc2c(s1)CCN(C1CCC1)CC2 [Example E107]	histamine H3 receptors (Homo sapiens, UniProt Q9Y5N1)	> 7.94 nM
Cc1cc(C(=O)N2CCC(c3nc4c(s3)CCN(C3CCC3)CC4)CC2)[nH]n1 [Example E79]	histamine H3 receptors (Homo sapiens, UniProt Q9Y5N1)	< 1.26 nM
Cc1cccc(C(=O)N2CCC(c3nc4c(s3)CCN(C3CCC3)CC4)C2)n1 (stereo not shown) [Example E106]	histamine H3 receptors (Homo sapiens, UniProt Q9Y5N1)	< 31.6 nM
Cc1nccc(C(=O)N2CCC(c3nc4c(s3)CCN(C3CCC3)CC4)CC2)n1 [Example E95]	histamine H3 receptors (Homo sapiens, UniProt Q9Y5N1)	< 1.26 nM

* * *

Quick reference for Ki among some compounds
- target desc: histamine H3 receptors (Homo sapiens, UniProt Q9Y5N1)
- Construct: expressed in transfected cells; host or cells: CHO K1 cells carrying pSwitch, transfected with pGeneH3, induced with mifepristone; clone 3H3; membrane preparation
- test name: Histamine H3 functional antagonist assay ([35S]-GTPγS SPA on membranes from H3 cells)
- Format: biochemical
- condition set: hydrochloride salts tested; H3 functional antagonist assay using membrane prepared from cultured H3 cells; averages of a number of experiments; read-out: functional pKi (fpKi) (converted)
- Procedure: A membrane preparation containing histamine H3 receptors may be prepared in accordance with the following procedures: (i) Generation of Histamine H3 Cell Line […] 10-14 days post selection 10 nM Mifepristone (InVitrogen), was added to the culture medium to induce the expression of the receptor. […] Receptor bound antibody was detected by incubation of the cells for 60 minutes on ice with a goat anti rabbit antibody, conjugated with Alexa 488 fluorescence marker (Molecular Probes). […]
metric: Ki

compound	target desc	recorded value
O=C1OCCN1c1ccc(-c2nc3c(s2)CCN(C2CCC2)CC3)cc1 [Example E44]	histamine H3 receptors (Homo sapiens, UniProt Q9Y5N1)	< 0.316 nM
NC(=O)c1ccc(-c2nc3c(s2)CCN(C2CCC2)CC3)cn1 [Example E100]	histamine H3 receptors (Homo sapiens, UniProt Q9Y5N1)	< 1.26 nM
N#Cc1ccc(N2CCC(c3nc4c(s3)CCN(C3CCC3)CC4)C2)cn1 (single isomer, unassigned; (-)) [Example E36]	histamine H3 receptors (Homo sapiens, UniProt Q9Y5N1)	< 0.316 nM
Cc1cccc(C(=O)N2CCC(c3nc4c(s3)CCN(C3CCC3)CC4)CC2)n1 [Example E11]	histamine H3 receptors (Homo sapiens, UniProt Q9Y5N1)	< 0.316 nM

* * *

- target desc: histamine H3 receptors (Homo sapiens, UniProt Q9Y5N1)
- Construct: expressed in transfected cells; host or cells: CHO K1 cells carrying pSwitch, transfected with pGeneH3, induced with mifepristone; clone 3H3; membrane preparation
- test name: Histamine H3 functional antagonist assay ([35S]-GTPγS SPA on membranes from H3 cells)
- Format: biochemical
- condition set: hydrochloride salts tested; H3 functional antagonist assay using membrane prepared from cultured H3 cells; averages of a number of experiments; read-out: functional pKi (fpKi) (converted)

compound	Ki
Cc1cc(C(=O)N2CCC(c3nc4c(s3)CCN(C3CCC3)CC4)CC2)no1	< 1.26 nM
FC(F)(F)c1ccc(-c2nc3c(s2)CCN(C2CCC2)CC3)cc1 [Example E1]	< 31.6 nM
Cc1cc(C(=O)N2CCC(c3nc4c(s3)CCN(C3CCC3)CC4)CC2)nn1C	< 1.26 nM
Cc1cc(C(=O)N2CCC(c3nc4c(s3)CCN(C3CCC3)CC4)CC2)ccn1	< 1.26 nM
O=C1NCCN1c1ccc(-c2nc3c(s2)CCN(C2CCC2)CC3)cn1	< 1.26 nM
O=C(c1ccc(C(F)(F)F)nc1)N1CCC(c2nc3c(s2)CCN(C2CCC2)CC3)CC1	< 31.6 nM
NC(=O)c1ccc(N2CCC(c3nc4c(s3)CCN(C3CCC3)CC4)CC2)cn1	< 0.316 nM
N#Cc1ccc(N2CCC(c3nc4c(s3)CCN(C3CCC3)CC4)C2)cn1 (racemic) [Example E35]	< 1.26 nM
